FYI, the data here is from patent US10143666B2.

# PROCEDURE_DETAILS: Body weight in R6/2 mice
# CONDITION_DESCRIPTION: i.v. 50 mg/kg (treatment discontinued), Day 5, n 1
OUTCOME_MEASURE: Body weight (group Mean) (g)

[
  {
    "CHEMICAL_STRUCTURE": "CN(C)CCCNC(=N)c1ccc(C(=N)NCCCN(C)C)cc1.Cl.Cl.Cl.Cl",
    "MEASURED_NUMBER": 16.8
  }
]

====

# PROCEDURE_DETAILS: Body weight in R6/2 mice
# CONDITION_DESCRIPTION: i.v. 50 mg/kg (treatment discontinued), Day 2, n 1

[
  {
    "CHEMICAL_STRUCTURE": "CN(C)CCCNC(=N)c1ccc(C(=N)NCCCN(C)C)cc1.Cl.Cl.Cl.Cl",
    "UNIT_DESCRIPTOR": "g",
    "Body weight (group Mean)": 16.1
  }
]
